Experiment: Study GPBA single oral dose pharmacokinetics
Conditions: human, in vivo; healthy subjects, single oral dose 250 mg, median
measurement-type: Tmax (h)
The reply should contain only the number, in h.

In: Data request, read-out Tmax, for CC(C)OC(=O)N[C@H]1Cc2c(n(Cc3ccccn3)c3ccc(C#N)cc23)C1 [compound of Formula II]
Out: 5

----------
Assay: Study GPBA single oral dose pharmacokinetics
Conditions: human, in vivo; healthy subjects, single oral dose 1000 mg, median
measurement-type: Tmax
Write your answer as a measured quantity: the number, then the unit.

In: Entry under review: CC(C)OC(=O)N[C@H]1Cc2c(n(Cc3ccccn3)c3ccc(C#N)cc23)C1 [compound of Formula II] . Reported Tmax?
Out: 4.5 h

----------
Test: Study GPBA single oral dose pharmacokinetics
Conditions: human, in vivo; healthy subjects, single oral dose 5 mg, median
measurement-type: Tmax (h)
Reply with just the number (in h).

In: Given CC(C)OC(=O)N[C@H]1Cc2c(n(Cc3ccccn3)c3ccc(C#N)cc23)C1 , state its recorded Tmax.
Out: 5

----------
Experiment: Study GPBA single oral dose pharmacokinetics
Details: human, in vivo; healthy subjects, single oral dose 250 mg, geometric mean
measurement-type: Cmax (ng/mL)
API: value field is a number in ng/mL; no unit string.

In: GET /values?readout=Cmax&item= CC(C)OC(=O)N[C@H]1Cc2c(n(Cc3ccccn3)c3ccc(C#N)cc23)C1 [compound of Formula II]
Out: 589

----------
Test system: LnCAP cells
Test: LnCAP gene expression
Type: cell-based
Settings: Homo sapiens, read-out: LnCAP Gene Expression EC50 (nM) CLUSTERIN
measurement-type: EC50 (nM)
The response must be a number in nM with no trailing unit.

In: For the compound shown here, C[C@]1(O)CC[C@H]2[C@@H]3CCC4=CC(=O)CCC4=C3C=C[C@@]21C , give the reported EC50.
Out: 0.37

----------
Assay: Study GPBA single oral dose pharmacokinetics
Conditions: human, in vivo; healthy subjects, single oral dose 500 mg, median
measurement-type: Tmax (h)
Please respond with the number in h and leave the unit unwritten.

In: Quick one: Tmax for CC(C)OC(=O)N[C@H]1Cc2c(n(Cc3ccccn3)c3ccc(C#N)cc23)C1 [compound of Formula II] ?
Out: 4

----------
Test: Rat bioavailability
Format: in vivo
Conditions: in vivo, read-out: Rat F %
measurement-type: bioavailability (%)
Please give a number only; it is taken to be in %.

In: Quick one: bioavailability for CC(C)OC(=O)N[C@H]1Cc2c(n(Cc3ccccn3)c3ccc(C#N)cc23)C1 ?
Out: 63

----------
Assay: Study GPBA single oral dose pharmacokinetics
Conditions: human, in vivo; healthy subjects, single oral dose 25 mg, geometric mean
measurement-type: Cmax (ng/mL)
Your answer should be a plain number; it is taken to be in ng/mL.

In: Given CC(C)OC(=O)N[C@H]1Cc2c(n(Cc3ccccn3)c3ccc(C#N)cc23)C1 , state its recorded Cmax.
Out: 123

----------
Experiment: Study GPBA single oral dose pharmacokinetics
Details: human, in vivo; healthy subjects, single oral dose 500 mg, geometric mean
measurement-type: Cmax (ng/mL)
State just the number; it will be interpreted in ng/mL.

In: Data request, read-out Cmax, for CC(C)OC(=O)N[C@H]1Cc2c(n(Cc3ccccn3)c3ccc(C#N)cc23)C1 [compound of Formula II]
Out: 817

----------
Assay: Study GPBA single oral dose pharmacokinetics
Details: human, in vivo; healthy subjects, single oral dose 5 mg, geometric mean
measurement-type: Cmax (ng/mL)
Supply the numeric figure in ng/mL, leaving out any unit text.

In: Any idea what Cmax was measured for CC(C)OC(=O)N[C@H]1Cc2c(n(Cc3ccccn3)c3ccc(C#N)cc23)C1 ?
Out: 25.9
